For each record, write down the corresponding soluble fraction (log2).
TEST_NAME: soluble fraction after stress (log2 fold change); higher = more stays soluble; pooled small domains, quantitative proteomics
RUN_CONDITIONS: stress: pH 4
Give bare numbers.

[[record]]
monomer_sequence = "HMRTPTGVQAYLSSGLIKGIGEKTAAAIVDKFGTDALSVIETDPERLLEIPGITPNKLREILESYNQH"
result = 0.174

[[record]]
monomer_sequence = "HMANKTVPNVSGKTVAEARAIIENQSLQVGEEKEEYSDSVAEGYIIRTNPTAGSQKKEQSKIDLVVSKG"
result = -0.211

[[record]]
monomer_sequence = "HMQGAARGMLFAQAQRWMTKFRIDPQQADRITQAALDPAQTDAILREVRRGYGPSAERALRGIIRRARRA"
result = 0.259

[[record]]
monomer_sequence = "HMSDEIQLQFIQISIFKDHPWADMQIKDMNIIPDLLIVMILRDGERIIPNGNTRIMPGDMVIITAMSANT"
result = -1.7

[[record]]
monomer_sequence = "HMSPIKAGDLVKITGTKYYRGQTIPSWVKAKNWFVHSVSGDRAVINKSEDGKNAIMSPVKVSNLALVT"
result = 0.0492

[[record]]
monomer_sequence = "HMTSDYEPSEKDEKAVIGIAFLRNTDVYDVDIDKAEAIKALKANNDIYQKFVKFFPFVKLPSLYDDFQ"
result = -0.109

[[record]]
monomer_sequence = "HMKREELTQQTKQNLREAFWSLYIQKPIEKITVKEITDIAGYNRGTFYLYYKDTYDLLAKIE"
result = -0.646


From here, focus on the item given below.
Look up soluble fraction (log2) for this sequence: HMVYNQYILTQSVRLREEPGISGRVIRLLETGTTVELVDTVVVNKDDYDWVWVKLSDGAVGWIIKSAIDI
-1.03

---

TEST_NAME: soluble fraction after stress (log2 fold change); higher = more stays soluble; pooled small domains, quantitative proteomics
RUN_CONDITIONS: stress: pH 4
MEASURE_NAME: soluble fraction (log2)
Answers are plain numbers.

[[record]]
monomer_sequence = "HMANAGKFDSDMGEKINFPGNRVSLTPSELEAARELAAIMGDRFFSQLIPTTSKVTVTEMLQSLK"
measure_name = "soluble fraction (log2)"
result = -0.849

[[record]]
monomer_sequence = "HMNPNPFVNLSPRELEVLNLLFKGYGVLEISNELNIGQTTASTFKSRILKKTSTHSVVELIKLAEQYGFIP"
measure_name = "soluble fraction (log2)"
result = -0.847


From here, focus on the item given below.
Look up soluble fraction (log2) for this sequence: HMLSGGEVKRIEIATILARKSGLMIFDEPEAGIDLWSFARLVETFEDIRSNTSGSLVIISHQ
-0.0926

---

For each record, write down the corresponding soluble fraction (log2).
TEST_NAME: soluble fraction after stress (log2 fold change); higher = more stays soluble; pooled small domains, quantitative proteomics
RUN_CONDITIONS: stress: pH 4
One number for each entry.

[[record]]
monomer_sequence = "HMIGHIGSAVMLNAKLRPRLPLLHVLALTQSLGERLSAAEAQPEVYRWSDPGQSRVIAEFEGGRLTRWRLE"
measure_name = "soluble fraction (log2)"
result = -0.968


Each sequence below has a reported value. Please supply its soluble fraction (log2).
1. HMQLPTNAAAILRYLSSGAVKGVGSATAVRIVEKFGEETLNILEQDPLRLAEIRGISRDKAKKIGEDFASQ
2. HMELPMGTQLPPERELAQQMQVSRAVVNGGLAELAQQGFLEVRPRQGTFVADYRRKGNLSTLIAIMEY
3. HMVEDFSEVLLQYIREQGGAIALNDKTDAGVIYDTFGVSKKTFKKAVGDLYKKRLIVLGDEGIRLA
4. HMVSFAEQASDWLAHFDRLGDVGPDTTLTDLTARDAEFSAWVNEGIHHRVAFLETLAAWHRTER
5. HMIRQETYLLVRKAVGALPVQMRKIIELAMQGKKNAEIAAQLSISEGTVHTLKKTAYKKLRDRLQE
6. HMLSLKAQVYEIIRQKILQQEYALGEKINIDTVADELKISNSPIREALMMLSQDGLIEMVPNNGARVI

1: 0.0714; 2: 0.22; 3: -0.939; 4: -0.0379; 5: -0.32; 6: -1.27

Data credit: the domain aggregation screens of Martell et al. (2025)
